Sourced from patent US20260167620A1

assay: Liver microsomal metabolic stability, human; assay type: in vitro ADME; conditions: human liver microsomes, NADPH, 37° C.
# Lookup of reported Thalf (min) Human keyed by entry
Quantity Kind: Thalf (min) Human

NC(=O)c1nnc(N2CCCCC2)nc1Nc1ccc(N2CCC(CN3CCN(c4cc5c(cc4F)C(=O)N(C4CCC(=O)NC4=O)C5=O)CC3)CC2)c(F)c1 (centres unmarked)
38
CC(=O)N[C@@H]1CCCN(c2nnc(C(N)=O)c(Nc3ccc(C4CCN(CC5CCN(c6ccc7c(c6)C(=O)N(C6CCC(=O)NC6=O)C7=O)CC5)CC4)cc3)n2)C1 (some centres unmarked)
20
CC(=O)N[C@@H]1CCCN(c2nnc(C(N)=O)c(Nc3ccc(N4CCN(CC5CCN(c6ccc(N7CCC(=O)NC7=O)c(C)c6)CC5)CC4)c(F)c3)n2)C1
78
CC(=O)N[C@@H]1CCCN(c2nnc(C(N)=O)c(Nc3ccc(C4CCN(CC5CCN(c6ccc7c(c6)C(=O)N(C6CCC(=O)NC6=O)C7=O)C5)CC4)cc3)n2)C1 (some centres unmarked)
37
NC(=O)c1nnc(N2CCCCC2)nc1Nc1ccc(C2CCN(CC3CCN(c4ccc5c(c4)C(=O)N(C4CCC(=O)NC4=O)C5=O)C3)CC2)cc1 (centres unmarked)
71.37
NC(=O)c1nnc(N2CCCCC2)nc1Nc1ccc(N2CCN(CC3CCN(c4ccc(NC5CCC(=O)NC5=O)nc4)CC3)CC2)c(F)c1 (centres unmarked)
57
NC(=O)c1nnc(N2CCCCC2)nc1Nc1ccc(C2CCN(CC3CCN(c4ccc5c(c4)C(=O)N(C4CCC(=O)NC4=O)C5=O)C3)CC2)c(F)c1 (centres unmarked)
120
CC(=O)N[C@@H]1CCCN(c2nnc(C(N)=O)c(Nc3ccc(N4CCN(CC5CCN(c6ccc(C(=O)NC7CCC(=O)NC7=O)nc6)CC5)CC4)c(F)c3)n2)C1 (some centres unmarked)
41
